System: Caco-2 permeability, B->A Papp, LC-MS/MS
ASSAY_OVERVIEW: Inhibitors of Bloom's syndrome helicase: Caco-2 Permeability Profiling Assay
MEASUREMENT_PARAMETERS: stronger effect = higher value
PARAMETER_MEASURED: permeability B->A Papp

[[record]]
test_smiles = "O=C(Nc1ccc(F)c(C(F)(F)F)c1)Nc1nnc(-c2ccncc2)s1"
result = "1 10^-6 cm/s"

